# Tested On: Human VPS34 (Homo sapiens (Human))
# Sequence (Q8NEB9 whole entry): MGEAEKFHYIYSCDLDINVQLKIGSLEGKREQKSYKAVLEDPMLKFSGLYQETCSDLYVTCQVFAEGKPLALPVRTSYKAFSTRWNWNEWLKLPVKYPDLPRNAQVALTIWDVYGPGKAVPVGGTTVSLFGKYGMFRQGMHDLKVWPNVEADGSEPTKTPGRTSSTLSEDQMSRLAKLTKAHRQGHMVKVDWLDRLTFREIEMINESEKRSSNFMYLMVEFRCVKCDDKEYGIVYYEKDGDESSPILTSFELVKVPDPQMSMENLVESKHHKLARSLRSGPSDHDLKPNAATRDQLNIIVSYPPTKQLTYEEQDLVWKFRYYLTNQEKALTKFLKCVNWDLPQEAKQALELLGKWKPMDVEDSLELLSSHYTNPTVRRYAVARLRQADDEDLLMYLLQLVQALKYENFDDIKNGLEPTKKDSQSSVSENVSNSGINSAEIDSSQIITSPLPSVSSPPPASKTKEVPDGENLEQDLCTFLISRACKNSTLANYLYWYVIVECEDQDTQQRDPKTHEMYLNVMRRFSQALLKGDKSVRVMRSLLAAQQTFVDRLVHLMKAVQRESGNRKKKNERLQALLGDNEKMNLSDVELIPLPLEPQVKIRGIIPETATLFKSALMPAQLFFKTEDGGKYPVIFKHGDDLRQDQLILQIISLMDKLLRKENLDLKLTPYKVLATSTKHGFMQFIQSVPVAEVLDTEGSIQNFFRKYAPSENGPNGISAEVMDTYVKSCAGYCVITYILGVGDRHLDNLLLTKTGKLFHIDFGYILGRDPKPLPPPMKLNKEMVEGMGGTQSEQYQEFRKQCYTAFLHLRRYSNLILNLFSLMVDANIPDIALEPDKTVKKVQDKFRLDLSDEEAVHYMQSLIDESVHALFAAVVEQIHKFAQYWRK
# Test Description: Human VPS34 enzyme assay (Adapta TR-FRET)
# Type: biochemical
# Condition Parameters: compound concentration 1.11 μM; read-out: Percent Inhibition
Quantity: inhibition at 1.11 µM

| Compound | inhibition at 1.11 µM |
| --- | --- |
| Cc1ncc(-c2ccnc(NC(=O)C3CC3(F)F)c2)cc1NS(=O)(=O)c1ccc(F)cc1F (racemic) [Compound I-16] | > 99% |
| COc1ncc(-c2ccnc(NC(C)=O)c2)cc1S(=O)(=O)NC12CC(C1)C2 | > 99% |
| CC(=O)Nc1cc(-c2cnc(C)c(NS(=O)(=O)N3CCC3)c2)ccn1 | > 99% |

Turning now to a further compound:
Reported Human VPS34 (Homo sapiens (Human)) inhibition at 1.11 µM for item `CC(=O)Nc1cc(-c2cnc(C)c(NS(=O)(=O)N(C)C)c2C)ccn1` was 91%
